Exercise: for every item that follows, state its recorded EC50.
Target: T1, GST-TIP1 PDZ domain 1 fusion protein (human), O14907
T1 chain: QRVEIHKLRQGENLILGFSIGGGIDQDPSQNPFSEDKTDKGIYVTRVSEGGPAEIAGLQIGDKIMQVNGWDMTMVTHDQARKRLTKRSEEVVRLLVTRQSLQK
Test: G3 assay titration, immobilised GST-PDZ
No end group written: not given here. *: point of attachment. Biotin = O=C1N[C@H]2[C@H](CS[C@H]2CCCCC(=O)*)N1

In: Entry YGRKKRRQRRRSTNSVRLML (not fully specified) has what EC50?
Out: < 1000 nM

In: May I ask what EC50 has been recorded for Biotin-YGRKKRRQRRREKHFRETEV [Peptide #AA353 (biotin-…)] ?
Out: < 2 nM
